experiment: CEETOX_H295R_DOC: CeeTox H295R High-throughput Steroidogenesis Assay for DOC (AID 2283439); details: actives raise or lower the signal
The source made the active and inactive calls. The calls were made as follows: active = hit-call score of the fitted dose curve at least 0.9, where 1 is the maximum; inactive = score below 0.9.
API: response.call in Yes = active, No = inactive

Example results:
>  <molecule>
CC1(C)C(C=C(Cl)Cl)C1C(=O)OC(C#N)c1ccc(F)c(Oc2ccccc2)c1 (configuration not stated)

>  <category>
No

$$$$
>  <molecule>
CC[C@H](C)[C@H]1O[C@]2(C=C[C@@H]1C)C[C@@H]1C[C@@H](C/C=C(\C)[C@@H](O[C@H]3C[C@H](OC)[C@@H](O[C@H]4C[C@H](OC)[C@@H](O)[C@H](C)O4)[C@H](C)O3)[C@@H](C)/C=C/C=C3\CO[C@@H]4[C@H](O)C(C)=C[C@@H](C(=O)O1)[C@]34O)O2 (tested in a mixture with another compound)

>  <category>
No

$$$$
>  <molecule>
Oc1ccc(Cl)cc1Cc1ccccc1

>  <category>
Yes

$$$$
>  <molecule>
CCC(C)(C)C(=O)OC1=C(c2ccc(Cl)cc2Cl)C(=O)OC12CCCCC2

>  <category>
Yes

$$$$

Moving on to another molecule below.
Data request: Please state the recorded outcome for this molecule: CCCN(CCOc1c(Cl)cc(Cl)cc1Cl)C(=O)n1ccnc1
Data returned: Yes
